# credit: ChEMBL document CHEMBL4304763

assay comment: in vivo
test settings: BALB/c, mouse, po, 10 mg/kg

{"columns": ["structure notation", "Cmax at 24 h"],
 "data": [
  ["CCN1CCN(Cc2ccc(Nc3ncc(F)c(-c4cc(F)c5nc(C)n(C(C)C)c5c4)n3)nc2)CC1", "577 ng/mL"]
]}

----------
assay comment: in vivo
test settings: BALB/c, mouse, po, 10 mg/kg
readout label: AUC(0-t) at 24 h (ng·h/mL)

{"columns": ["compound", "data value"],
 "data": [
  ["CCN1CCN(Cc2ccc(Nc3ncc(F)c(-c4cc(F)c5nc(C)n(C(C)C)c5c4)n3)nc2)CC1 [ABEMACICLIB]", 2170]
]}
